Recorded values, source patent US20200317744A1.

- Measured On: murine IL-2Rβ (mIL-2Rβ) (mouse) (UniProt P16297)
- Assay: SPR; mIL-2Rβ immobilised
Measured Metric: Kd (nM)

G1_neo2_40_1F_M2 (designed binder) STKNTQLAAEDALLDALMLRNLLNEPNEKLARIITTMQSWQFTEKIDGDGAQELAKEVEELQQEHEERGIDVEDYASNLKVILLQLA	2600
G2_neo2_40_1F_seq36 (designed binder) PKKKIQLLAEHALLDALMILNIVKTNSQNAEEKLEDYASNVEVILEEIARLMESGDQKDEAEKAKRMKEWMKRIKTTASEDEQEEMANRIITLLQSWIFS	2430
